Experimental System: FAAH (Rattus norvegicus)
Construct: Preparation of Rat Brain Membranes Preparations (FAAH Enzyme Solution); from tissue; host or cells: rat cerebrum (brain membrane preparation)
Sequence (P97612 1-579): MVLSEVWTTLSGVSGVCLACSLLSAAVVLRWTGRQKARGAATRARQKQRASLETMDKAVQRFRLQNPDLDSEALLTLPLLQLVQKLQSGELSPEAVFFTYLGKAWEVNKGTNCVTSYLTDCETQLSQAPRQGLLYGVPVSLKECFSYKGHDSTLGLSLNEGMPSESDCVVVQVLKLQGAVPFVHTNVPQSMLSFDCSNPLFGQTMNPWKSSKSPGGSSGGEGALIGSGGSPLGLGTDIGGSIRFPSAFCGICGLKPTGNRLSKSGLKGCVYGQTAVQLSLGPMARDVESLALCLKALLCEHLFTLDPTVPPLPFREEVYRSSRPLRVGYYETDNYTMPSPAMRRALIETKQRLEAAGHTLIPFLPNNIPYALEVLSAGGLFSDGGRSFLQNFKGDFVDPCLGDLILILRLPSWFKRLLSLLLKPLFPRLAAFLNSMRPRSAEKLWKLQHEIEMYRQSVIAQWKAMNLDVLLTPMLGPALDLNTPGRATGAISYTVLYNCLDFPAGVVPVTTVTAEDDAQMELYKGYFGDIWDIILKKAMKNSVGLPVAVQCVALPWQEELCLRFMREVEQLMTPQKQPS
Assay Notes: Determination of FAAH inhibitory activity in rat (rat brain membrane preparations, [3H]-anandamide hydrolysis)
Format: biochemical
Experimental Context: rat brain membrane preparations; test substance 0.1 nM to 1 μM; read-out: FAAH Inhibition IC50
pIC50: −log10 of the molar value.
Quantity Measured: pIC50

Past entries and their recorded results:
**Query** Tell us which pIC50 value is on record for Cn1c(=O)n(C(=O)N2CCCC2)c2nc(Cc3cc(F)ccc3F)ncc21
**Result** 7.33

**Query** Complete the entry with pIC50 for CCOc1cccc(C2CN(C(=O)n3c(=O)n(C)c4nc(COC)ncc43)C2)c1
**Result** 7.92

I = CN(C)C(=O)n1c(=O)n(C)c2nc(-c3ccccc3)ncc21
II = CN(C)C(=O)n1c(=O)n(C)c2cnc(CCCOc3cccc(F)c3)nc21
III = Cn1c(=O)n(C(=O)N2CCC2)c2nc(CCc3ccccc3F)ncc21
**Query** hey, can you rank those compounds up there by pIC50? biggest number first please Order the labels as requested and list them.
**Result** I, II, III
(I: 7.92, II: 7.49, III: 7.03)
